Target: human collagenase-1 catalytic domain (Homo sapiens, UniProt P03956)
Sequence (P03956 100-269 limits assumed): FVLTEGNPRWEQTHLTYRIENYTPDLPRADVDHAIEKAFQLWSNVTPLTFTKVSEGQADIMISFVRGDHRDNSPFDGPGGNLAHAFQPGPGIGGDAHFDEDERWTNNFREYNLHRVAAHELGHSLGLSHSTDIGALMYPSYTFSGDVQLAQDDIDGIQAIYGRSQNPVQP
measured_quantity: IC50 (µM)
Numbers only; they are read as µM.

Summary line: CC(C)[C@@H](NS(=O)(=O)N1CCC(Oc2ccc(Cl)cc2)CC1)C(=O)NO [compound 59] , human collagenase-1 catalytic domain (Homo sapiens, UniProt P03956), reported IC50 = 0.11

Summary line: O=CN1CCN(S(=O)(=O)N2CCC(C(=O)c3ccc(Cl)cc3)CC2)C(C(=O)NO)C1 (racemic) [compound 262] , human collagenase-1 catalytic domain (Homo sapiens, UniProt P03956), reported IC50 = 0.088

Summary line: CC(=O)N1CCN(S(=O)(=O)N2CCC(C(=O)c3ccc(Cl)cc3)CC2)C(C(=O)NO)C1 (racemic) [compound 255] , human collagenase-1 catalytic domain (Homo sapiens, UniProt P03956), reported IC50 = 0.12

---

Counter-ions that a name gives are not always drawn.
Recorded melting point for the following compounds

O=C(NO)C1(NS(=O)(=O)N2CCN(c3ccc(Cl)cc3)CC2)CCCCC1 : 146.1 to 146.6 °C
CC(C)[C@@H](NS(=O)(=O)N1CCN(c2ccc(OCc3ccccc3)cc2)CC1)C(=O)NO : 149 to 156 °C

Form: compound = O=C(CNS(=O)(=O)N1CCN(c2cccc(Cl)c2)CC1)NO ; melting point = 138.1 to 138.6 °C

Form: compound = CC(C)[C@@H](NS(=O)(=O)N1CCN(c2ccc(Cl)cn2)CC1)C(=O)NO ; melting point = 146.7 to 147 °C

Form: compound = CC(C)[C@@H](NS(=O)(=O)N1CCC(Oc2ccc(F)cc2)CC1)C(=O)NO ; melting point = 74.3 to 75.3 °C

Form: compound = COCCN(CC(=O)NO)S(=O)(=O)N1CCN(c2ccc(Cl)cc2)CC1 (as salt: TFA) ; melting point = 54.1 to 57.7 °C

Form: compound = C[C@H](NS(=O)(=O)N1CCC(C(=O)c2ccc(Cl)cc2)CC1)C(=O)NO ; melting point = 201.2 to 201.8 °C
